The reported numbers originate from patent US20140010817A1.

- SYSTEM NAME: T1, RX protein purified from the culture supernatant of ADSF cells (murine mammary tumor virus (MMTV) …, UniProt P03374 99-474; P03374 475-651)
- T1 construct: also called purified RX protein; ADSF cell-derived RX protein
- ASSAY NAME: SPR (ProteOn XPR36), humanized MAb1 captured on immobilised Protein A/G, RX protein as analyte
Labelling: Kd reported below 0.3 nM becomes 1.0; at or above becomes 0.0.

Example entries and their recorded answers appear below.
1. humanized antibody T12 (antibody, V domains shown, also called humanized MAb1 (H4/L4)) VH: EVQLVESGGGLVQPGRSLRLSCAGSGFTFSDYYMAWVRQAPGKGLEWVASISYEGSNTNFGDSVKGRFTISRDSAKNTLYLKMNSLRAEDTAVYYCARWAQTGYYFDYWGQGTLVTVSS VL: DIQMTQSPSSLSASVGDRVTITCLASEDIYSNLAWYQQKPGKSPQLLIYYANSLNDGVPSRFSGSGSGTDFTLTISRLQPEDFATYFCQQNYDSPYTFGQGTKLEIKR :: 0.0
2. humanized antibody T6 (antibody, V domains shown, also called humanized MAb1 (H2/L3)) VH: EVQLVESGGGLVQPGRSLRLSCAASGFTFSDYYMAWVRQAPGKGLEWVASISYEGSNTNFGDSVKGRFTISRDNSKNTLYLKMNSLRAEDTAVYYCARWAQTGYYFDYWGQGTLVTVSS VL: DIQMTQSPSSLSASVGDRVTITCLASEDIYSNLAWYQQKPGKSPQLLIYYANSLNDGVPSRFSGSGSGTDFTLTISRLQPEDFATYFCQQNYDSPYTFGQGTKVEIKR :: 0.0
3. humanized antibody T1 (antibody, V domains shown, also called humanized MAb1 (H1/L1)) VH: EVQLVESGGGLVQPGRSLRLSCAASGFTFSDYYMAWVRQAPGKGLEWVSSISYEGSNTNFGDSVKGRFTISRDNSKNTLYLKMNSLRAEDTAVYYCARWAQTGYYFDYWGQGTLVTVSS VL: DIQMTQSPSSLSASVGDRVTITCLASEDIYSNLAWYQQKPGKAPKLLIYYANSLNDGVPSRFSGSGSGTDFTLTISRLQPEDFATYYCQQNYDSPYTFGQGTKVEIKR :: 0.0

## Task Lab note: Kd threshold 0.3 nM. Does this binder come in strictly under it? humanized antibody T16 (antibody, V domains shown, also called humanized MAb1 (H6/L2)) VH: EVQLVESGGGLVQPGRSLRLSCAGSGFTFSDYYMAWVRQAPGKGLEWVASISYEGSNTNFGDSVKGRFTISRDNSKNTLYLKMNSLRAEDTAVYYCARWAQTGYYFDYWGQGTLVTVSS VL: DIQMTQSPSSLSASVGDRVTITCLASEDIYSNLAWYQQKPGKSPKLLIYYANSLNDGVPSRFSGSGSGTDFTLTISRLQPEDFATYYCQQNYDSPYTFGQGTKVEIKR
## Result 0.0

## Task Lab note: Kd threshold 0.3 nM. Does this binder come in strictly under it? humanized antibody T8 (antibody, V domains shown, also called humanized MAb1 (H3/L1)) VH: EVQLVESGGGLVQPGRSLRLSCAGSGFTFSDYYMAWVRQAPGKGLEWVASISYEGSNTNFGDSVKGRFTISRDSSKNTLYLKMNSLRAEDTAVYYCARWAQTGYYFDYWGQGTLVTVSS VL: DIQMTQSPSSLSASVGDRVTITCLASEDIYSNLAWYQQKPGKAPKLLIYYANSLNDGVPSRFSGSGSGTDFTLTISRLQPEDFATYYCQQNYDSPYTFGQGTKVEIKR
## Result 1.0

## Task Lab note: Kd threshold 0.3 nM. Does this binder come in strictly under it? humanized antibody T4 (antibody, V domains shown, also called humanized MAb1 (H2/L1)) VH: EVQLVESGGGLVQPGRSLRLSCAASGFTFSDYYMAWVRQAPGKGLEWVASISYEGSNTNFGDSVKGRFTISRDNSKNTLYLKMNSLRAEDTAVYYCARWAQTGYYFDYWGQGTLVTVSS VL: DIQMTQSPSSLSASVGDRVTITCLASEDIYSNLAWYQQKPGKAPKLLIYYANSLNDGVPSRFSGSGSGTDFTLTISRLQPEDFATYYCQQNYDSPYTFGQGTKVEIKR
## Result 0.0

## Task Lab note: Kd threshold 0.3 nM. Does this binder come in strictly under it? humanized antibody T9 (antibody, V domains shown, also called humanized MAb1 (H3/L2)) VH: EVQLVESGGGLVQPGRSLRLSCAGSGFTFSDYYMAWVRQAPGKGLEWVASISYEGSNTNFGDSVKGRFTISRDSSKNTLYLKMNSLRAEDTAVYYCARWAQTGYYFDYWGQGTLVTVSS VL: DIQMTQSPSSLSASVGDRVTITCLASEDIYSNLAWYQQKPGKSPKLLIYYANSLNDGVPSRFSGSGSGTDFTLTISRLQPEDFATYYCQQNYDSPYTFGQGTKVEIKR
## Result 1.0

## Task Lab note: Kd threshold 0.3 nM. Does this binder come in strictly under it? humanized antibody T15 (antibody, V domains shown, also called humanized MAb1 (H5/L5)) VH: EVQLVESGGGLVQPGRSLRLSCAASGFTFSDYYMAWVRQAPGKGLEWVASISYEGSNTNFGDSVKGRFTISRDSSKNTLYLKMNSLRAEDTAVYYCARWAQTGYYFDYWGQGTLVTVSS VL: DIQMTQSPSSLSASVGDRVTITCLASEDIYSNLAWYQQKPGKSPKLLIYYANSLNDGVPSRFSGSGSGTDFTLTISSLQPEDFATYYCQQNYDSPYTFGQGTKVEIKR
## Result 1.0

## Task Lab note: Kd threshold 0.3 nM. Does this binder come in strictly under it? humanized antibody T3 (antibody, V domains shown, also called humanized MAb1 (H1/L3)) VH: EVQLVESGGGLVQPGRSLRLSCAASGFTFSDYYMAWVRQAPGKGLEWVSSISYEGSNTNFGDSVKGRFTISRDNSKNTLYLKMNSLRAEDTAVYYCARWAQTGYYFDYWGQGTLVTVSS VL: DIQMTQSPSSLSASVGDRVTITCLASEDIYSNLAWYQQKPGKSPQLLIYYANSLNDGVPSRFSGSGSGTDFTLTISRLQPEDFATYFCQQNYDSPYTFGQGTKVEIKR
## Result 0.0

## Task Lab note: Kd threshold 0.3 nM. Does this binder come in strictly under it? humanized antibody T10 (antibody, V domains shown, also called humanized MAb1 (H3/L3)) VH: EVQLVESGGGLVQPGRSLRLSCAGSGFTFSDYYMAWVRQAPGKGLEWVASISYEGSNTNFGDSVKGRFTISRDSSKNTLYLKMNSLRAEDTAVYYCARWAQTGYYFDYWGQGTLVTVSS VL: DIQMTQSPSSLSASVGDRVTITCLASEDIYSNLAWYQQKPGKSPQLLIYYANSLNDGVPSRFSGSGSGTDFTLTISRLQPEDFATYFCQQNYDSPYTFGQGTKVEIKR
## Result 0.0
